assay system: UniProtKB P20815
Sequence (P20815 whole entry): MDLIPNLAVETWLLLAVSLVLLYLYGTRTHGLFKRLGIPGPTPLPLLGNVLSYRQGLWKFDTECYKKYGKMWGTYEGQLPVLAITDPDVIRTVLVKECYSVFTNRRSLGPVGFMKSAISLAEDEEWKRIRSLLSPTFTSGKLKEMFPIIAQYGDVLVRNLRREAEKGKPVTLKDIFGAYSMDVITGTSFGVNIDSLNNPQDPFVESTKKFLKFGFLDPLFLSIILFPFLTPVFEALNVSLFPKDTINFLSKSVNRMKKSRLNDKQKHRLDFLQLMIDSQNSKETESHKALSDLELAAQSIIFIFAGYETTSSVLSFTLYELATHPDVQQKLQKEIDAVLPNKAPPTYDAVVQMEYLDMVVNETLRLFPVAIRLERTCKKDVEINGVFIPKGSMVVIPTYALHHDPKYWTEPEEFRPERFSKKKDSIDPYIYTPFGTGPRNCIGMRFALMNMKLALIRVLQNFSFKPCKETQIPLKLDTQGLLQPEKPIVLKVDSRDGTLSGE
test details: Vivid CYP450 fluorescence assay, reversible inhibition
pIC50: −log10 of the molar value.
observation type: pIC50

INSERT INTO results (cpd_smiles, assay_system, observation_type, recorded_result) VALUES
  ('C[C@H](N)C(=O)c1ccccc1', 'UniProtKB P20815', 'pIC50', 4.70);

###

assay system: CYP2E1 (Homo sapiens)
Sequence (P05181 whole entry): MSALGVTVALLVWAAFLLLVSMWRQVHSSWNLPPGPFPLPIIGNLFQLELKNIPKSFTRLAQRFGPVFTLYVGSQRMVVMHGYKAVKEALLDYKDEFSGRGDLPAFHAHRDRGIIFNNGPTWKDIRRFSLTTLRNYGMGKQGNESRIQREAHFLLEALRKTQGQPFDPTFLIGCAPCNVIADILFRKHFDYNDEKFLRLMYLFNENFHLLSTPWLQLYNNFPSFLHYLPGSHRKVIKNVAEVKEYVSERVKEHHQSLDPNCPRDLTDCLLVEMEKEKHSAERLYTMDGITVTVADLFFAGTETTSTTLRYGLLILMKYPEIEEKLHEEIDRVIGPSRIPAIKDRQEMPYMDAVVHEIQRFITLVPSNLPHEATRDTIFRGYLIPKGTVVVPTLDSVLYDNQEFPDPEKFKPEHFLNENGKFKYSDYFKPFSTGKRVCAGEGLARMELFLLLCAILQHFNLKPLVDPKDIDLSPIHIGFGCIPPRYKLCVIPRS
test details: Time-dependent inhibition (IC50 shift, NADPH pre-incubation)
Format: biochemical
Parameters: purchased Life Technologies
Description: The procedure followed was similar to that used for screening of CYP reversible inhibition as mentioned above but with slight modifications. The master premix was added with NADP^+ to produce NADPH before the pre-incubation. The mixture was incubated for 30 min with shaking under similar range of concentrations of cathinone as mentioned above for IC50 determination. […] The IC50 shift was derived by calculating ratios of IC50 obtained from pre-incubation with and without NADPH. […]
pIC50: −log10 of the molar value.
observation type: pIC50

INSERT INTO assay_data (cpd_smiles, recorded_result) VALUES
  ('C[C@H](N)C(=O)c1ccccc1', 4.15);
